In this section, each of the compounds is paired with its reported relative viability.
tested on: HCC-44; test: relative viability (nuclei count vs DMSO), 5 days (fraction); higher = more cells survive; conditions: first compound 2 µM
Returns: the value as a bare number; no unit string appended.

CN1CCN(CCOc2cc(OC3CCOCC3)c3c(Nc4c(Cl)ccc5c4OCO5)ncnc3c2)CC1 [Saracatinib] + CC(C)C[C@H](NC(=O)[C@H](Cc1ccccc1)NC(=O)c1cnccn1)B(O)O [Bortezomib] (partner 0.002 µM); 1.02
Cc1csc(=NC2CCCCC2)n1/N=C/c1ccc(O)c(O)c1O [MIM1] + CCNC(=O)c1noc(-c2cc(C(C)C)c(O)cc2O)c1-c1ccc(CN2CCOCC2)cc1 [Luminespib] (partner 0.01 µM); 0.433
Cc1csc(=NC2CCCCC2)n1/N=C/c1ccc(O)c(O)c1O [MIM1] + C[C@@H](Oc1cc(-c2cnn(C3CCNCC3)c2)cnc1N)c1c(Cl)ccc(F)c1Cl [Crizotinib] (partner 1 µM); 0.67

Query (compound): CN1CCN(CCOc2cc(OC3CCOCC3)c3c(Nc4c(Cl)ccc5c4OCO5)ncnc3c2)CC1 [Saracatinib] + COc1cccc2cc(-c3nc([C@H]4CC[C@H](C(=O)O)CC4)n4ncnc(N)c34)[nH]c12 [OSI-027] (partner 0.5 µM) ; field requested: relative viability
0.543
